Tested on: LOX IMVI melanoma
Assay procedure: NCI tumour cell line growth inhibition, 48 h
Value type: GI50

Data request: Bench note: what GI50 did O=C1N=C2c3c(sc4c3CCCC4)N=CN2C1N=Nc1ccc(Cl)cc1 (centres undefined) show?
Data returned: 29.8 µM

Data request: Bench note: what GI50 did O=C(CNC(=O)c1cccc2ccccc12)Nc1ccccc1Oc1cccc(O)c1 show?
Data returned: 15 µM

Data request: Bench note: what GI50 did CC[C@@]1(O)C(=O)NCc2c1cc1n(c2=O)Cc2cc3cc4c(cc3nc2-1)OCO4 show?
Data returned: 0.296 µM

Data request: Bench note: what GI50 did Cn1c2ccccc2c2c(=O)n(CCCC(=O)NCC(=O)OC(=NC3CCCCC3)NC3CCCCC3)c3c(-c4ccccc4)nnn3c21 show?
Data returned: 13.1 µM

Data request: Bench note: what GI50 did Cc1sc2ncnc(Sc3nc4ccccc4[nH]3)c2c1C show?
Data returned: 21.2 µM

Data request: Bench note: what GI50 did Clc1nc(Cl)c2ncn(C/C=C\Cn3cnc4c(Cl)nc(Cl)nc43)c2n1 show?
Data returned: 1.8 µM

Data request: Bench note: what GI50 did O=[N+]([O-])c1cccc(-c2nc3sccn3c2-c2ccnc(NCCCNS(=O)(=O)c3ccc(F)cc3)n2)c1 show?
Data returned: 2.57 µM

Data request: Bench note: what GI50 did S=C(Nc1ccccc1)c1ccccn1 show?
Data returned: 28.2 µM

Data request: Bench note: what GI50 did OCCNc1nc(NCCO)nc(Nc2ccc(C3=NN(c4cc(Cl)cc(Cl)c4)C(c4ccc(Cl)cc4)C3)cc2)n1 (centres undefined) show?
Data returned: 1.65 µM

Data request: Bench note: what GI50 did COc1cc2c(cc1OCCCCCOc1cc(-c3ccc(F)cc3)nc(C)n1)N=C[C@@H]1CCCN1C2=O show?
Data returned: 11.1 µM

Data request: Bench note: what GI50 did COC(=O)C1=CN(CC2=CC(=O)C(C)=CC2=O)C=C(C(=O)OC)C1c1cccc(OC)c1OC show?
Data returned: 20 µM

Data request: Bench note: what GI50 did CNC(=O)c1cc(Oc2ccc3nc(NC(=O)Nc4ccc(Cl)c(Cl)c4)sc3c2)ccn1 show?
Data returned: 1.82 µM

Data request: Bench note: what GI50 did CN(C)c1cccc2[nH]c(-c3[nH]ncc3Nc3ccnc(N)n3)nc12 show?
Data returned: < 0.01 µM

Data request: Bench note: what GI50 did CCN(CC)c1ccc(/C=N/NC(=O)c2ccc(Nc3ccnc(C(F)(F)F)c3)cc2)c(O)c1 show?
Data returned: 0.14 µM

Data request: Bench note: what GI50 did Nc1cc(N)c2nc(-c3ccccc3)c(Nc3ccc(F)cc3)nc2c1 show?
Data returned: 4.81 µM

Data request: Bench note: what GI50 did COc1ccc(NC2=C(Sc3nc(C)cc(C)n3)C(=O)N(Cc3ccccc3)C2=O)cc1Cl show?
Data returned: > 160 µM

Data request: Bench note: what GI50 did C[C@]12CC[C@H]3[C@@H](CC=C4C[C@@H](O)CC[C@@]43C)[C@@H]1C/C(=C\c1cccc(OCCN3CCOCC3)c1)[C@@H]2O show?
Data returned: > 100 µM

Data request: Bench note: what GI50 did [N-]=[N+]=Nc1ncc(-c2ccc(C(F)(F)F)cc2)c(NC2CCCCCC2)n1 show?
Data returned: > 10 µM

Data request: Bench note: what GI50 did CCCCCCN1C(=O)/C(=c2\sc3n(c2=O)C2C(NN=3)N(CC)C(=O)N2CC)c2ccccc21 (centres undefined) show?
Data returned: 1.53 µM

Data origin: PubChem BioAssay (NCI)
